Tested on: OVCAR-3 ovarian
Assay: NCI tumour cell line growth inhibition, 48 h
A collection of compounds and their measured TGI
READOUT_NAME: TGI (µM)

{"COMPOUND": "CC(=O)O[C@H]1CC[C@@]2(C)C(=C/C(=N/OCCN3CCCC3)[C@H]3[C@@H]4CC[C@H](OC(C)=O)[C@@]4(C)CC[C@@H]32)C1", "READOUT_NAME": "TGI", "SIGN_QUALIFIER": ">", "QUANTITATIVE_READOUT": 100}
{"COMPOUND": "C/C(=N\\O)c1cccc[n+]1Cc1ccccc1", "READOUT_NAME": "TGI", "SIGN_QUALIFIER": ">", "QUANTITATIVE_READOUT": 100}
{"COMPOUND": "CC(=O)OC1=CC2(OC(C)=O)CC(C)(C)C1C1C(=O)C=CC(=O)C12 (stereo not drawn)", "READOUT_NAME": "TGI", "SIGN_QUALIFIER": ">", "QUANTITATIVE_READOUT": 100}
{"COMPOUND": "Cc1ccc2nc(-c3ccc(C(C)(C)C)cc3)oc(=O)c2c1", "READOUT_NAME": "TGI", "SIGN_QUALIFIER": "=", "QUANTITATIVE_READOUT": 60.9}
{"COMPOUND": "COC(=O)C1OC(O[C@H]2CC[C@]3(C)[C@H]4CC=C5[C@@H]6CC(C)(C)CC[C@]6(C(=O)OC6OCC(O)C(O)C6OC6OC(C)C(OC7OCC(O)C(O)C7O)C(OC7OCC(O)(CO)C7O)C6O)[C@H](O)C[C@@]5(C)[C@]4(C)CC[C@H]3C2(C)C)C(O)C(O)C1O (stereo partly drawn)", "READOUT_NAME": "TGI", "SIGN_QUALIFIER": "=", "QUANTITATIVE_READOUT": 23.2}
{"COMPOUND": "COC(=O)Nc1nc2ccc(S(=O)(=O)N3CCOCC3)cc2[nH]1", "READOUT_NAME": "TGI", "SIGN_QUALIFIER": ">", "QUANTITATIVE_READOUT": 100}
{"COMPOUND": "Cc1nc2ccccc2nc1N=Nc1ccccc1", "READOUT_NAME": "TGI", "SIGN_QUALIFIER": "=", "QUANTITATIVE_READOUT": 82.1}
{"COMPOUND": "Cc1nc2cc(Nc3nc(Nc4ccc(F)cc4)nc(N4CCOCC4)n3)ccc2n1Cc1ccccc1", "READOUT_NAME": "TGI", "SIGN_QUALIFIER": "=", "QUANTITATIVE_READOUT": 7.14}

###

System: NCI-H522 lung
Test: NCI tumour cell line growth inhibition, 48 h; in the data active = GI50 below about 0.43 µM; inactive = the rest
Classes used: active, inactive

{"MOLECULE": "COc1cc2c(c(OC)c1OC)-c1ccc(N=NC(N)=S)c(=O)cc1[C@@H](NC(C)=O)CC2", "MEASUREMENT_TARGET": "NCI-H522 lung", "CAT": "active"}
{"MOLECULE": "CC1SC2(CCCCC2)N(NC(=O)c2[nH]c3ccc(Br)cc3c2-c2ccccc2)C1=O (centres undefined)", "MEASUREMENT_TARGET": "NCI-H522 lung", "CAT": "inactive"}
{"MOLECULE": "COc1ccc(-c2c3c(nc4n[nH]c(-c5ccc(Cl)cc5)c24)-c2ccccc2C(=O)C3=O)cc1", "MEASUREMENT_TARGET": "NCI-H522 lung", "CAT": "inactive"}
{"MOLECULE": "CN(C)c1ccc(/C=N/S(=O)(=O)c2ccc(-n3c(-c4ccccc4)nc4c(Br)cc(Br)cc4c3=O)cc2)cc1", "MEASUREMENT_TARGET": "NCI-H522 lung", "CAT": "inactive"}
